TEST DETAILS: chemical genetic growth profiling, strain panel (AID 1159580);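 also: tested at 20 µM; growth read once vehicle control cultures reached saturation at 30 °C; 1 = growth at the plate median or of vehicle wells; lower values mean less growth of the strain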
MEASUREMENT CONTEXT: S. cerevisiae deletion strains, growth OD, locus YBR160W, strain CDC28, stronger effect = lower value
Among all 5,500 compounds or so, about 2,000 (36%) were called active. Roughly 18% stayed inconclusive and do not appear here. The list shows a part of the results.
TEST READOUT: normalized growth
Enter the number alone.

Answer with the recorded normalized growth for the compound listed here: "Cc1ccc(C(=O)Nc2ccc3ccccc3n2)cc1"
0.95

In one line, give reported normalized growth of the entry CC(Oc1ccc(Cl)cc1Cl)C(=O)NNC(=S)Nc1ccccc1 (stereo unspecified) .
0.975

Quickly give me recorded normalized growth for "O=C(NCc1ccc(F)c(Cl)c1)Nc1csc([N+](=O)[O-])c1"
0.981

Name the recorded normalized growth of the compound listed here: FC(F)(F)c1ccc(C2Sc3ccccc3N=C3c4ccccc4CC32)cc1 (stereo unspecified)
1.02

# return recorded normalized growth for entry "CSC(SC)=C(C#N)C(=O)c1ccccc1Cl"
0.937

Determine its reported normalized growth: CC(NC(=S)Nc1ccc(Oc2ccc(Cl)cc2)cc1)c1ccccc1 (stereo unspecified)
0.976

Respond only with normalized growth recorded for "CN(NC(=S)Nc1cc(Cl)ccc1Cl)c1ccc(C(F)(F)F)cc1[N+](=O)[O-]"
0.979

Look up and state reported normalized growth for "COc1cccc(C(=O)C(C#N)=C(SC)SC)c1"
0.878

Provide only the value of recorded normalized growth for "N#C/C(=N/Nc1ccc(C(F)(F)F)cc1)C(=O)C1CC1"
0.942

Return reported normalized growth. Input compound: CC1CCc2c(sc3ncnc(Sc4ccccc4)c23)C1 (stereo unspecified)
0.983

Recall and state the measured normalized growth for "O=C(Nc1ccc(Cl)cc1)c1csc([N+](=O)[O-])c1" .
0.933
